System: primary human hepatic stellate cells (donor 1)
Test: scaled lipid accumulation score (0 = DMSO-like, 1 = nortriptyline-like); higher = stronger HSC inactivation (lipid re-accumulation), active = hit call of the paper
Settings: library stock concentration: 80 uM; 48 h
Screen size: about 5,800 compounds; about 620 (11%) showed activity. The sample holds actives, similar compounds and a random draw of the others, so the mix is not that of the screen.
Reported scaled lipid accumulation score values for the following compounds.

Example results:
Cn1cc(C2=C(c3cn(CCCSC(=N)N)c4ccccc34)C(=O)NC2=O)c2ccccc21: 0.068 (inactive)
Fc1cc(-c2ccnc(Nc3ccc(-n4cnc(N5CCOCC5)n4)cc3)n2)cc(N2CCOCC2)c1: 0.394 (inactive)
CN(C)C/C=C/C(=O)Nc1cc2c(Nc3ccc(F)c(Cl)c3)ncnc2cc1O[C@H]1CCOC1: 0.425 (inactive)

Tell me its scaled lipid accumulation score given "O=C(c1cncc(Br)c1)N1CCC(N2CCCC2)CC1" as the entry. ≤ 0 (inactive)

Tell me its scaled lipid accumulation score given "CN1CCN(Cc2ccc(-c3cnc4[nH]cc(-c5ccc6[nH]ccc6c5)c4c3)cc2)CC1" as the entry. ≤ -0.001 (inactive)

Tell me its scaled lipid accumulation score given "Cc1cnc(CNC(=O)c2c(=O)c3ccc(N4CCCN(C)CC4)nc3n3c2sc2ccccc23)cn1" as the entry. ≤ 0 (inactive)

Tell me its scaled lipid accumulation score given "C=CC(=O)Nc1cc(NC(=O)c2ccc(C)c(NC(=O)c3ccno3)c2)cc(C(F)(F)F)c1" as the entry. ≤ 0 (inactive)

Tell me its scaled lipid accumulation score given "Nc1ccc(C(=O)Nc2cccc(-c3nc(N4CCOCC4)c4oc5ncccc5c4n3)c2)cn1" as the entry. ≤ -0.009 (inactive)

Tell me its scaled lipid accumulation score given O=c1oc2c(O)c(O)cc3c(=O)oc4c(O)c(O)cc1c4c23 [Ellagic acid] as the entry. ≤ 0 (inactive)

###

Test system: primary human hepatic stellate cells (donor 1)
Assay: scaled lipid accumulation score (0 = DMSO-like, 1 = nortriptyline-like); higher = stronger HSC inactivation (lipid re-accumulation), active = hit call of the paper
Settings: library stock concentration: 3.33 mM; 48 h
The campaign covered roughly 5,800 compounds. About 620 (11%) showed activity.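 Rule for the calls: active = score above a cut-off or among the top three wells of a plate; in these data no inactive exceeds 0.85.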 Many of the other results were omitted from the sample, so actives are more common in it than they were.
Pick one and only one: active, inactive

CC[C@@H](C)Nc1cc(C(=O)N[C@H]2C[C@H]3CC[C@@H](C2)N3c2ccc(C(=O)C3CC3)cn2)c(C)cc1C(N)=O: inactive
O=C(Oc1cc(S(=O)(=O)c2ccccc2)ccc1[N+](=O)[O-])c1ccc(Cl)cc1: inactive
CC(S)C(=O)NCC(=O)O (stereo not drawn) [Tiopronin]: inactive
Cc1cc(C)c(-c2csc(NC(=O)c3ccccc3)n2)c(C)c1: inactive
C=C1CC2(O)OC3(CC2C(C)C)C(C)CCC13 (stereo not drawn) [Curcumol]: inactive
Cc1cc(Nc2ncc(Cl)c(Nc3ccccc3S(=O)(=O)C(C)C)n2)c(OC(C)C)cc1C1CCNCC1: inactive

GET /call?item= "CCC(=O)Nc1cccc(Oc2nc(Nc3ccc(N4CCN(C)CC4)cc3OC)ncc2Cl)c1" returns the recorded outcome of this test. inactive

###

Test system: primary human hepatic stellate cells (donor 1)
Assay: scaled lipid accumulation score (0 = DMSO-like, 1 = nortriptyline-like); higher = stronger HSC inactivation (lipid re-accumulation), active = hit call of the paper
Conditions: library stock concentration: 3.33 mM; 48 h
In all, about 5,800 compounds went through this assay and about 620 (11%) showed activity. The sample as a whole holds a higher share of actives than the screen did.
Test Readout: scaled lipid accumulation score

CC(=O)O/N=C1/C(c2c(O)[nH]c3cc(Br)ccc23)=Nc2ccccc21 [GSK-3 Inhibitor X]: ≤ 0 (inactive)
Cn1c(N2CCCCS2(=O)=O)nc(C(=O)NCc2ccc(F)cc2)c(O)c1=O: 0.024 (inactive)
N#Cc1c(O)c2c(-c3ccc(-c4ccccc4O)cc3)csc2[nH]c1=O: 0.004 (inactive)

Tell me its scaled lipid accumulation score given COc1ccc(-c2cnc3c(-c4ccsc4)cnn3c2)cc1 [VEGF Receptor 2 Kinase Inhibitor IV] as the entry. ≤ 0 (inactive)

Tell me its scaled lipid accumulation score given "CC1(C)CC(=O)c2c(C(F)(F)F)nn(-c3ccc(C(N)=O)c(N[C@H]4CC[C@H](OC(=O)CN)CC4)c3)c2C1" as the entry. 0.77 (inactive)

Tell me its scaled lipid accumulation score given COC(=O)Nc1nc2cc(C(=O)c3cccs3)ccc2[nH]1 [Nocodazole] as the entry. 0.021 (inactive)

Tell me its scaled lipid accumulation score given Cc1[nH]c2ccccc2c1CCNCc1ccc(/C=C/C(=O)NO)cc1 [Panobinostat (LBH589)] as the entry. 0.728 (inactive)

###

System: primary human hepatic stellate cells (donor 1)
Assay: scaled lipid accumulation score (0 = DMSO-like, 1 = nortriptyline-like); higher = stronger HSC inactivation (lipid re-accumulation), active = hit call of the paper
Conditions: library stock concentration: 1 mM; 48 h
In all, about 5,800 compounds went through this assay and about 620 (11%) showed activity. Only a selection was taken, and actives are over-represented in it overall.
Reported scaled lipid accumulation score values for the following compounds.

Example results:
CCCCCCCC(=O)OC[C@H](CO)OC(=O)CCCCCCC [1,2-Dioctanoyl-sn-glycerol]: 0.009 (inactive)
COC(=O)C1=CC[C@@]23CC[C@@H]([C@@](C)(/C=C/C=C(\C)C(=O)O)OC2=O)[C@@]3(OC(C)=O)CC1 [Pseudolaric Acid B]: ≤ 0 (inactive)
CC/C=C\C/C=C\C/C=C\CCCCCCCCCCCC(=O)O [Docosatrienoic acid (22:3 n-3)]: ≤ -0.021 (inactive)
CCCC/C=C/C=C/C=C/CCCCCCCC(=O)OC [9(Z),11(E),13(E)-Octadecatrienoic Acid methyl ester]: ≤ 0 (inactive)

Please look at the following compound next.
Tell me its scaled lipid accumulation score given CCCCC[C@H](O)/C=C/[C@H]1C(=O)C[C@H](O)[C@@H]1C/C=C\CCCC(=O)OC [Prostaglandin D2 methyl ester] as the entry. ≤ 0 (inactive)

###

Tested on: primary human hepatic stellate cells (donor 1)
Experiment: scaled lipid accumulation score (0 = DMSO-like, 1 = nortriptyline-like); higher = stronger HSC inactivation (lipid re-accumulation), active = hit call of the paper
Conditions: library stock concentration: 3.33 mM; 48 h
The campaign covered roughly 5,800 compounds. About 620 (11%) showed activity. The sample holds actives, similar compounds and a random draw of the others, so the mix is not that of the screen.
Reported scaled lipid accumulation score values for the following compounds.

Cc1c(C(=O)Nc2ccc(N3CCC(N4CCOCC4)CC3)c(C#N)c2)cnn1-c1ccc(Cl)cc1: 0.756 (inactive)
CO[C@H]1O[C@@H]2O[C@@]3(C)CC[C@H]4[C@H](C)CC[C@@H]([C@H]1C)[C@@]24OO3: ≤ 0 (inactive)

Tell me its scaled lipid accumulation score given "Cc1ccc(NC(=O)c2ccc(CN3CCN(C)CC3)cc2)cc1Nc1nc(-c2cccnc2)cs1" as the entry. 1.13 (active)

Tell me its scaled lipid accumulation score given C[N+](C)(C)CCO.[Cl-] [Choline Chloride] as the entry. ≤ 0 (inactive)

Tell me its scaled lipid accumulation score given C/C=C1\NC(=O)[C@H]2CSSCC/C=C/[C@H](CC(=O)N[C@H](C(C)C)C(=O)N2)OC(=O)[C@H](C(C)C)NC1=O [Romidepsin (FK228, Depsipeptide)] as the entry. 0.521 (inactive)

###

System: primary human hepatic stellate cells (donor 1)
Assay: scaled lipid accumulation score (0 = DMSO-like, 1 = nortriptyline-like); higher = stronger HSC inactivation (lipid re-accumulation), active = hit call of the paper
Conditions: library stock concentration: 3.33 mM; 48 h
The campaign covered roughly 5,800 compounds. About 620 (11%) showed activity. This excerpt belongs to a sample that is enriched for actives.
Reported scaled lipid accumulation score values for the following molecules.

Example results:
COc1ncc(-c2ccc3nccc(-c4ccnnc4)c3c2)cc1NS(=O)(=O)c1ccc(F)cc1F: 0.066 (inactive)
O=C1Cc2c([nH]c3ccc(Br)cc23)-c2ncccc2N1: 0.405 (inactive)
C=C1CC[C@H](O)C/C1=C/C=C1\CCC[C@]2(C)[C@@H]([C@H](C)CCCC(C)(C)O)CC[C@@H]12: ≤ 0 (inactive)
O=C(c1cc2cc(O)ccc2[nH]1)c1cc2cc(O)ccc2[nH]1: ≤ 0 (inactive)
CO[C@H]1C[C@@H]2CC[C@@H](C)[C@@](O)(O2)C(=O)C(=O)N2CCCC[C@H]2C(=O)O[C@H]([C@H](C)C[C@@H]2CC[C@@H](O)[C@H](OC)C2)CC(=O)[C@H](C)/C=C(\C)[C@@H](O)[C@@H](OC)C(=O)[C@H](C)C[C@H](C)/C=C/C=C/C=C/1C [Rapamycin (Sirolimus)]: 0.037 (inactive)

Please look at the following molecule next.
Tell me its scaled lipid accumulation score given CC(=O)N1CCN(c2ccc(OCC3COC(Cn4ccnc4)(c4ccc(Cl)cc4Cl)O3)cc2)CC1 (stereo unspecified) as the entry. 0.086 (inactive)
